test_target: T1, wild type SOD1 from human erythrocytes (physiological dimers) (human, UniProt P00441 2-154)
T1 construct: Purified from human erythrocytes (Sigma-Aldrich); homodimer; control incubated in Tris acetate buffer without oxidants; also called Native SOD1; native human SOD1 dimers
T1 sequence (P00441 2-154 limits assumed): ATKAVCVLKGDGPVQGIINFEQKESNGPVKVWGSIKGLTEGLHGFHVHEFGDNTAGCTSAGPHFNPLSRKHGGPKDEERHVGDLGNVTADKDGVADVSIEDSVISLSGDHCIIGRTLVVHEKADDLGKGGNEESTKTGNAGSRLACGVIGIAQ
test_protocol: direct ELISA, native human SOD1 dimers coated at 20 µg/ml
As shown below, each of these binders has a reported EC50 value.
Hi! Could you send only the number? It should be in nM, unit omitted.

NI-204.67E12 (antibody, human IgG1, V domains shown) VH: EVQLLESGGGLIRPGGSLRLSCAASGFTFSNYAMGWVRQAPGKGLEWVSAISGNGGSTYYGGSVKGRFTISRDKSKNTLYLQMNNLRADDTAVYFCAKLEAVAPTLTLRYFKHWGKGTLVTVSS VL: DIQMTQSPSTLSASVGDRVTITCRASQSISRWLAWYQQRPGRAPDLLIYDASNLESGVPSRFSGSGSGTEFTLTISSLQPGDFATYYCQQYYSYVYTFGQGTKLEIK	0.1

Briefly, EC50 measured for NI-204.11F11 (antibody, human IgG1, V domains shown) VH: EVQLVESGGGLVKPGGSLRLSCAASGLPFSKAWMSWVRQAPGKGLEWVGRIKSQADGGAIDYATSVNGRFTITRDDSKNTLYLQMTSLKTEDTAVYYCTPGIILRFLEGTLRGMDVWGQGTTVTVSS VL: EIVLTQSPPTLSLSPGERATLSCRASQTVSKYLAWYQQKPGQAPRLLVYDTSNRAIGIPPRFSGSGSGTDFTLTISTLEPEDFALYYCQQRSNWPPTFGQGTRLEIK : 50
